Data credit: patent US8778966B2

Documented log10 minimal effective concentration across a set of molecules
System: PC3 cells
test.method.notes: EB1 Comet (microtubule disruption) assay
Assay type: cell-based, human
run.parameters: Homo sapiens, PC-3, 1 h, 1 hour treatment, read-out: EB1 pLAC (converted)
Values below are the log10 of the recorded minimal effective concentration, with µM as the unit.

# annotated cases, reported log10 minimal effective concentration shown
1) Cc1cc2ccc(C(C)(C#N)Cc3cccc(Oc4ncccn4)c3)cc2[nH]c1=O (stereo not drawn) [Compound 191]
-0.50
2) CCc1cc2ccc(C(C)(C#N)Cc3ccc(F)c(C#N)c3)cc2[nH]c1=O (stereo not drawn) [Compound 267]
-1.00
3) CCc1cc2ccc(C(C)(C#N)Cc3cccc(C#C[Si](C)(C)C)c3)cc2[nH]c1=O (stereo not drawn) [Compound 1]
0.00
4) CCc1cc2ccc(C(C)(C#N)Cc3nc4ccccc4n3C)cc2[nH]c1=O (stereo not drawn) [Compound 338]
0.00
5) CCc1cc2ccc(C(C)(C#N)CNCc3ccc(C#N)cc3)cc2[nH]c1=O (stereo not drawn) [Compound 302]
0.00

## Task Give the measured log10 minimal effective concentration of CCc1cc2ccc(C(C)(C#N)CCOc3cccc4ccccc34)cc2[nH]c1=O (stereo not drawn) [Compound 158] .
## Result -0.50

## Task Give the measured log10 minimal effective concentration of CCc1cc2ccc(C(C)(C#N)Cc3cccc(CNC)c3)cc2[nH]c1=O (stereo not drawn) [Compound 59] .
## Result 1.00

## Task Give the measured log10 minimal effective concentration of CCc1cc2ccc(C(C)(C#N)Cc3cccc(C4(N)CC4)c3)cc2[nH]c1=O (stereo not drawn) [Compound 180] .
## Result 0.50

## Task Give the measured log10 minimal effective concentration of CCc1cc2ccc(C(C)(C#N)Cc3cc(Cl)nc(Cl)c3)cc2[nH]c1=O (stereo not drawn) [Compound 372] .
## Result 0.00

## Task Give the measured log10 minimal effective concentration of CCc1cc2ccc(C(C)(C#N)Cc3cc(Cl)nc(C)n3)cc2[nH]c1=O (stereo not drawn) [Compound 365] .
## Result -0.50

====

target.of.assay: TANK-2 enzyme (Homo sapiens)
Construct: made in house
test.method.notes: In vitro Scintillation Proximity Assay (SPA) for TANK-2 inhibitory activity
Type: biochemical
run.parameters: read-out: in vitro SPA assay TANK-2 pIC50 (converted)
measured.endpoint: log10 IC50 (log10 of the value in nM)
Values below are the log10 of the recorded IC50, with nM as the unit.

# annotated cases, reported log10 IC50 shown
1. Cc1cc2ccc([C@@](C)(C#N)CCOc3ccccc3)cc2[nH]c1=O (single isomer, unassigned)
2.80
2. Cc1cc2ccc([C@](C)(C#N)[C@H]3CCc4ccc(Br)cc43)cc2[nH]c1=O
3.80
3. CCc1cc2ccc([C@@](C)(C#N)CCOc3ccccc3)cc2[nH]c1=O (single isomer, unassigned)
2.30
4. CCc1cc2ccc(C(C)(C#N)CCOc3ccccc3C(C)=O)cc2[nH]c1=O (stereo not shown)
2.40

## Task Give the measured log10 IC50 of CCc1cc2ccc([C@@](C)(C#N)Cc3cccc(C#CCO)c3)cc2[nH]c1=O (single isomer, unassigned) .
## Result 2.10

## Task Give the measured log10 IC50 of CCc1c(Cl)c2ccc(C(C)(C#N)Cc3cccc(C#N)c3)cc2[nH]c1=O (stereo not shown) .
## Result 3.00

## Task Give the measured log10 IC50 of CCc1cc2ccc(C(C)(C#N)Cc3nnsc3Cl)cc2[nH]c1=O (stereo not shown) .
## Result 1.90

## Task Give the measured log10 IC50 of CCc1cc2ccc(C(C)(C#N)Cc3cc(C#N)nc(N(C)C)c3)cc2[nH]c1=O (stereo not shown) .
## Result 1.80

## Task Give the measured log10 IC50 of "CCc1cc2ccc([C@](C)(C#N)C[C@@H]3CCc4cc(C)ccc4O3)cc2[nH]c1=O" .
## Result 2.50

## Task Give the measured log10 IC50 of CCc1cc2ccc(C(C)(C#N)Cc3ccc4ccccc4n3)cc2[nH]c1=O (stereo not shown) .
## Result 2.00

## Task Give the measured log10 IC50 of CCc1cc2ccc(C(C#N)(Cc3ccccc3)C(C)C)cc2[nH]c1=O (stereo not shown) .
## Result 2.90

## Task Give the measured log10 IC50 of CCc1cc2ccc(C(C)(C#N)Cc3cccc(C#CCO)c3)cc2[nH]c1=O (stereo not shown) .
## Result 2.90

## Task Give the measured log10 IC50 of CCc1cc2ccc(C(C)(C#N)Cc3cccc(F)c3F)cc2[nH]c1=O (stereo not shown) .
## Result 1.70

====

Documented IC50 across a set of molecules
target.of.assay: TANK-2 enzyme (Homo sapiens)
Construct: made in house
Sequence (Q9H2K2 1-1166): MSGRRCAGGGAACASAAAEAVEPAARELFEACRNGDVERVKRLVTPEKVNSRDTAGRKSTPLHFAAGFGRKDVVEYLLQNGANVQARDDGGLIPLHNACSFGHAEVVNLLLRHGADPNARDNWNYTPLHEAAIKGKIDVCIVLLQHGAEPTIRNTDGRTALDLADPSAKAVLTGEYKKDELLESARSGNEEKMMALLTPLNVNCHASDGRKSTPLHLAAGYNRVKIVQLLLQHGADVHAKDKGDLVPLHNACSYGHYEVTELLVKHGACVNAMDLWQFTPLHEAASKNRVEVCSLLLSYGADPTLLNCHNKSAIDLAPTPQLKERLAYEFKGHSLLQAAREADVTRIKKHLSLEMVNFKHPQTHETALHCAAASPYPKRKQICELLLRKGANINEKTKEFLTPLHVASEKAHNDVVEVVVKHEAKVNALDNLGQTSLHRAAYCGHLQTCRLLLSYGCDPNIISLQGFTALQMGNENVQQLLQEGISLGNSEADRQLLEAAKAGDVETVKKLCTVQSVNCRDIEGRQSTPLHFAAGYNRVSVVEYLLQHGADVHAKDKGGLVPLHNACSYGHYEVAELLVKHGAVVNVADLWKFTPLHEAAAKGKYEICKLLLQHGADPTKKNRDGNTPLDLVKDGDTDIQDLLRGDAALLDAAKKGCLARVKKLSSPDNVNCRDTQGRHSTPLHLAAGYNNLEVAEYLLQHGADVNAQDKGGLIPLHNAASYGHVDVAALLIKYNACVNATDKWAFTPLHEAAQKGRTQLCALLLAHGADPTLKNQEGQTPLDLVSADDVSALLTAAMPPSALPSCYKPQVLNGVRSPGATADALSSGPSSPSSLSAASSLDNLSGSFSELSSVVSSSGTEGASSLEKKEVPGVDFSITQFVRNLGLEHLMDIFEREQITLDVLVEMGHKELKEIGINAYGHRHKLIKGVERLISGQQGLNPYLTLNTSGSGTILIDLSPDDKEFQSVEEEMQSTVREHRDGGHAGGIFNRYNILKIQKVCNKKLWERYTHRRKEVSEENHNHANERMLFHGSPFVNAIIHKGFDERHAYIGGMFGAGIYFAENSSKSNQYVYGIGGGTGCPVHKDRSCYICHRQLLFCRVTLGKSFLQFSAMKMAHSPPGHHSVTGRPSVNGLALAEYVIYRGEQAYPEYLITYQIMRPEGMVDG
test.method.notes: In vitro Scintillation Proximity Assay (SPA) for TANK-2 inhibitory activity
Format: biochemical
run.parameters: read-out: in vitro SPA assay TANK-2 pIC50 (converted)
Please respond with the number in µM and leave the unit unwritten.

1) Cc1cc2ccc([C@@](C)(C#N)C3CCc4ccccc43)cc2[nH]c1=O (single isomer, unassigned) [Compound 385]
2
2) CCc1cc2ccc([C@](C)(C#N)C[C@H]3Cc4ccccc4O3)cc2[nH]c1=O [Compound 397]
0.1
3) C#CCOc1cccc(CC(C)(C#N)c2ccc3cc(CC)c(=O)[nH]c3c2)c1 (centres unmarked) [Compound 196]
0.316
4) CCc1cc2ccc(C(C#N)(CC)C3CCc4ccc(F)cc43)cc2[nH]c1=O (centres unmarked) [Compound 391]
0.631
5) CCc1cc2ccc(C(C)(C#N)Cc3cccc(N(C)C)c3)cc2[nH]c1=O (centres unmarked) [Compound 20]
0.0631

## Task Give the measured IC50 of CCc1cc2ccc(C(C#N)(CC)Cc3nc(OC)cc(OC)n3)cc2[nH]c1=O (centres unmarked) [Compound 321] .
## Result 0.158

## Task Give the measured IC50 of CCc1cc2ccc(C(C)(C#N)Cc3nc(C)cc(OC)n3)cc2[nH]c1=O (centres unmarked) [Compound 371] .
## Result 0.126

## Task Give the measured IC50 of Cc1cc2ccc(C(C)(C#N)C3CCc4ccccc43)cc2[nH]c1=O (centres unmarked) [Compound 392] .
## Result 1.26

====

target.of.assay: TANK-2 enzyme (Homo sapiens, UniProt Q9H2K2)
Construct: made in house
test.method.notes: In vitro Scintillation Proximity Assay (SPA) for TANK-2 inhibitory activity
Type: biochemical
run.parameters: read-out: in vitro SPA assay TANK-2 pIC50 (converted)
Documented IC50 across a set of compounds
Please respond with the number in µM and leave the unit unwritten.

1) CCOc1cc(OCC)nc(CC(C)(C#N)c2ccc3cc(CC)c(=O)[nH]c3c2)n1 (centres unmarked)
2
2) CCc1cc2ccc(C(C)(C#N)C3CCc4ccc(Br)cc43)cc2[nH]c1=O (single isomer, unassigned) [Compound 380]
2.51
3) CCc1cc2ccc(C(C)(C#N)Cc3ccccc3Br)cc2[nH]c1=O (centres unmarked)
0.0631

## Task Give the measured IC50 of CCc1cc2ccc(C(C)(C#N)Cc3ccc4ccccc4c3)cc2[nH]c1=O (centres unmarked) .
## Result 0.1

## Task Give the measured IC50 of CCc1cc2ccc(C(C)(C#N)CCOc3ccc([N+](=O)[O-])cc3)cc2[nH]c1=O (centres unmarked) .
## Result 0.158

## Task Give the measured IC50 of CCCn1ccnc1CC(C)(C#N)c1ccc2cc(CC)c(=O)[nH]c2c1 (centres unmarked) .
## Result 0.501

## Task Give the measured IC50 of CCc1cc2ccc(C(C)(C#N)Cc3nc(N(C)C)cc(N(C)C)n3)cc2[nH]c1=O (centres unmarked) .
## Result 0.2

## Task Give the measured IC50 of CCc1cc2ccc(C(C)(C#N)Cc3cccc4nnn(C)c34)cc2[nH]c1=O (centres unmarked) .
## Result 0.251

## Task Give the measured IC50 of CCc1cc2ccc(C(C)(C#N)CCOc3ncc(Br)cn3)cc2[nH]c1=O (centres unmarked) .
## Result 0.2

## Task Give the measured IC50 of CCc1cc2ccc(C(C)(C#N)Cc3c(C)c(C)cc(C)c3C)cc2[nH]c1=O (centres unmarked) .
## Result 0.2

## Task Give the measured IC50 of CCc1cc2ccc(C(C)(C#N)Cc3cc(C)ccc3C)cc2[nH]c1=O (centres unmarked) .
## Result 0.158

## Task Give the measured IC50 of CCc1cc2ccc(C(C)(C#N)CCOc3ccc(C(C)(C)C)cc3)cc2[nH]c1=O (centres unmarked) .
## Result 0.794

## Task Give the measured IC50 of CCc1cc2cc(C)c(C(C)(C#N)Cc3cccc(C#N)n3)cc2[nH]c1=O (centres unmarked) .
## Result 0.0398

## Task Give the measured IC50 of CCc1cc2ccc(C(C)(C#N)Cc3ccc(F)cc3F)cc2[nH]c1=O (centres unmarked) .
## Result 0.0631

## Task Give the measured IC50 of CCc1cc2ccc(C(C)(C#N)Cc3csc(C)n3)cc2[nH]c1=O (centres unmarked) .
## Result 0.158

## Task Give the measured IC50 of CCc1cc2ccc(C(C)(C#N)Cc3ccnc(C#N)c3)cc2[nH]c1=O (centres unmarked) .
## Result 0.02

## Task Give the measured IC50 of CCc1cc2ccc(C(C)(C#N)Cc3nc(Cl)cc(OCCOC)n3)cc2[nH]c1=O (centres unmarked) .
## Result 0.251
